Attribution: patent US5164380A

protocol notes: Solubilization kinetics / solubility test (oversaturation, paddle method, continuous flow cell)
recorded conditions: acetate buffer, pH 5, aqueous buffer
assay metric: solubility thermodynamic

1) CN1C(C(=O)Nc2ccccn2)=C(O)c2ccccc2S1(=O)=O [piroxicam]: 0.03 mg/mL
